# test method notes: Pharmacokinetics in rat
# experimental parameters: in vivo
Catalogue of molecules with associated clearance
Just the number in mL/min/kg, nothing appended.

Field: example entries. Status: answers known.
CN(C)C(=O)N1CCN(Cc2ccnc(Nc3ncc(C#N)s3)c2)CC1	15.5
CS(=O)(=O)C1CCN(Cc2ccnc(Nc3ncc(C#N)s3)c2)CC1	16.3

Consider the additional molecule presented here.
Query: I am curious: what clearance value has been reported for `CNC(=O)N1CCN(Cc2ccnc(Nc3ncc(C#N)s3)c2)CC1` ?
Result: 10.7

---

Recorded log10(half-life), one value per entry.
# test method notes: Pharmacokinetics in dog
# experimental parameters: in vivo
Parameter value (number): base-10 log of half-life in h.

CNC(=O)N1CCN(Cc2ccnc(Nc3ncc(C#N)s3)c2)CC1 [Compound 4-4]	1.24
N#Cc1cnc(Nc2cc(CN3CCN(C(N)=O)CC3)ccn2)s1	0.32
CC(=O)N1CCN(Cc2ccnc(Nc3ncc(C#N)s3)c2C)CC1	0.15

Query: What does the record list as log10(half-life) for CS(=O)(=O)C1CCN(Cc2ccnc(Nc3ncc(C#N)s3)c2)CC1 [Compound 5-6] ?
Result: 0.80

Query: Now try `CN(C)C(=O)N1CCN(Cc2ccnc(Nc3ncc(C#N)s3)c2)CC1` .
Result: 0.53
